B1: FCHSD1 (parent)
chain: LEAAEVILEHAHRGEQTTSQVSWE

Variants of: B1
Test: protein stability index of a GFP-peptide fusion (GPS, HEK-293T) (PSI 1-6); higher = more stable;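 also: lentivirally expressed fusions sorted by FACS into six bins by GFP to DsRed ratio, PSI derived from sequencing read proportions per bin multiplied by bin number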
Settings: c terminus: a fixed tail appended
Please provide measured protein stability index for the entries that follow.
One number for each entry.

Examples from the recorded data:
SEQUENCE_CHANGE | protein stability index
V6S | 4.24
Q16E | 4.88
Q20T | 3.86

Provide protein stability index for all items below, preserving their order.
1. Q16M
2. L1Q
3. S22F
4. E5K
5. S22Y
6. S22D
7. E5N
8. W23C

3.57
4.92
3.71
3.48
4.63
4.77
3.63
3.4

Provide protein stability index for all items below, preserving their order.
1. E24N
2. Q20K
3. T17S
4. E2T
5. L1M
6. H10E
7. E24H

3.92
5.02
4.77
3.6
4.58
5.19
4

Provide protein stability index for all items below, preserving their order.
1. Q16S
2. W23K
3. E24M

1: 4.4; 2: 4.41; 3: 2.72

Values compiled from the supplement of paper PMC10567573.
